Entries annotated with measured CC50 at 5 days
# Test description: Cytotoxicity in mock-infected MT-4 cells, MTT method
# Assay type: cell-based
# Condition description: human, mock-infected MT-4 cells, CC50, mock-infected MT-4 cells
Your answer is read as µM, so omit the unit and give the number.

Below are worked cases with known answers.
| Molecule | CC50 at 5 days (µM) |
| --- | --- |
| Cc1cc(C)cc(S(=O)(=O)c2c(C(=O)NCCNS(=O)(=O)C3CC3)[nH]c3ccc(Cl)cc23)c1 [R13L2] | 172 |
| Cc1cc(C)cc(S(=O)(=O)c2c(C(=O)NCCNS(=O)(=O)c3ccccc3)[nH]c3ccc(Cl)cc23)c1 [R9L2] | 185 |
| Cc1cc(C)cc(S(=O)(=O)c2c(C(=O)NCCCCCNS(=O)(=O)c3ccccc3)[nH]c3ccc(Cl)cc23)c1 [R9L5] | 129 |

Summary for this molecule, COc1ccc(S(=O)(=O)NCCCCNC(=O)c2[nH]c3ccc(Cl)cc3c2S(=O)(=O)c2cc(C)cc(C)c2)cc1 [R2L4] : CC50 at 5 days is 22.5

Summary for this molecule, COc1ccc(S(=O)(=O)NCCNC(=O)c2[nH]c3ccc(Cl)cc3c2S(=O)(=O)c2cc(C)cc(C)c2)cc1 [R2L2] : CC50 at 5 days is 106

Summary for this molecule, Cc1cc(C)cc(S(=O)(=O)c2c(C(=O)NCCCCNS(=O)(=O)c3cccc(F)c3)[nH]c3ccc(Cl)cc23)c1 [R12L4] : CC50 at 5 days is 186

Summary for this molecule, Cc1ccc(S(=O)(=O)NCCCNC(=O)c2[nH]c3ccc(Cl)cc3c2S(=O)(=O)c2cc(C)cc(C)c2)cc1 [R1L3] : CC50 at 5 days is 168

Summary for this molecule, Cc1ccc(S(=O)(=O)NCCNC(=O)c2[nH]c3ccc(Cl)cc3c2S(=O)(=O)c2cc(C)cc(C)c2)cc1 [R1L2] : CC50 at 5 days is 168

Summary for this molecule, Cc1cc(C)cc(S(=O)(=O)c2c(C(=O)NCCCNS(=O)(=O)c3cccnc3)[nH]c3ccc(Cl)cc23)c1 [R10L3] : CC50 at 5 days is 55.1

Summary for this molecule, COc1ccc(S(=O)(=O)NCCCNC(=O)c2[nH]c3ccc(Cl)cc3c2S(=O)(=O)c2cc(C)cc(C)c2)cc1 [R2L3] : CC50 at 5 days is 163

Summary for this molecule, Cc1cc(C)cc(S(=O)(=O)c2c(C(=O)NCCCCNS(=O)(=O)c3cccnc3)[nH]c3ccc(Cl)cc23)c1 [R10L4] : CC50 at 5 days is 216

Summary for this molecule, Cc1cc(C)cc(S(=O)(=O)c2c(C(=O)NCCNS(=O)(=O)c3ccc(Cl)cc3)[nH]c3ccc(Cl)cc23)c1 [R7L2] : CC50 at 5 days is 175

Summary for this molecule, Cc1cc(C)cc(S(=O)(=O)c2c(C(=O)NCCCCCNS(=O)(=O)c3cccs3)[nH]c3ccc(Cl)cc23)c1 [R8L5] : CC50 at 5 days is 35.4
